// provenance: PubChem BioAssay (NCI)

- protocol.description: NCI Yeast Anticancer Drug Screen. Data for the bub3 strain (AID 167)
- test.context: S. cerevisiae bub3 mutant strain, at 50.0 µM, stronger effect = higher value
Compounds without any hit were thinned out: in the full panel of roughly 79,000, 15% have a hit.
Cut-off 70% on growth inhibition, inclusive. At or above means 1; below means -1.

[
  {
    "compound": "O=C1C=CC(=O)c2nc3ccccc3nc21",
    "class": 1
  },
  {
    "compound": "O=C1c2ccccc2C(O)(c2ccccc2)c2c(Cl)cccc21 (stereo not given)",
    "class": 1
  },
  {
    "compound": "CCc1nc(N)nc(N)c1-c1ccc(NCCc2ccccc2)c([N+](=O)[O-])c1",
    "class": -1
  },
  {
    "compound": "O=[N+]([O-])/C=C/c1c[nH]c2c1ccc1ccccc12",
    "class": 1
  },
  {
    "compound": "CC[O-].CC[O-].[O-]c1ccccc1C=Nc1ccccc1.[O-]c1ccccc1C=Nc1ccccc1.[Ti+4]",
    "class": -1
  }
]

[ask] // inclusive: growth inhibition at least 70%? input: O=C(c1ccc(Cl)cc1)C1N=NCC1c1ccccc1 (stereo not given)
[reply] 1

[ask] growth inhibition >= 70% for CCCCCCCC[N+](C)(C)Cc1ccc(C[N+](C)(C)CCCCCCCC)cc1 ?
[reply] -1

[ask] Textbook exercise: given the entry ON(Cc1ccccc1)C(=S)c1ccccc1 , state whether its growth inhibition is greater than or equal to 70%.
[reply] 1

[ask] Textbook exercise: given the entry c1ccc2c(c1)ccc1c[n+]3c4ccccc4ccc3n12 , state whether its growth inhibition is greater than or equal to 70%.
[reply] 1

[ask] Please indicate if the recorded growth inhibition for Cc1ccc(S(=O)(=O)CC2COC(CS(=O)(=O)c3ccc(C)cc3)CO2)cc1 (stereo not given) meets or exceeds 70%.
[reply] -1

[ask] Test whether the compound O=C(O)CSC(=S)N1CCCC1 records growth inhibition of 70% or higher.
[reply] -1

[ask] Quick check, growth inhibition >= 70%? O=C1C(CCl)=CS(=O)(=O)c2ccccc21
[reply] 1

[ask] Hi team, for C#CCn1cnc2c(N)ncnc21 , is the recorded growth inhibition at or above 70%?
[reply] -1

====

- protocol.description: NCI Yeast Anticancer Drug Screen. Data for the cln2 rad14 strain (AID 165);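 also: 0% = growth equal to vehicle treated cultures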
- test.context: S. cerevisiae cln2 rad14 strain, at 50.0 µM, stronger effect = higher value
Compounds without any hit were thinned out: in the full panel of roughly 79,000, 15% have a hit.
Would you please tag the item y when its growth inhibition is 60% or above, and n when it is below?

Example results:
[
  {
    "compound": "CSC(=S)OC1CC(n2cnc3c(NC(=O)c4ccccc4)ncnc32)OC1CO[Si](C)(C)C(C)(C)C (stereo unspecified)",
    "class": "y"
  },
  {
    "compound": "COC1/C=C\\C=C(/C)C(=O)NC2=CC(=O)C(N)=C(CC(C)CC(OC)C(O)C(C)C=C(C)C1OC(N)=O)C2=O (stereo unspecified)",
    "class": "y"
  }
]

[ask] hey, is growth inhibition for this one >= 60%? Cc1ccc(C)c(C(=O)/C=C/C(=O)O)c1
[reply] n

[ask] Is reported growth inhibition greater than or equal to 60% here: CCNC(=S)N/N=C(\C)c1cccc(C)n1
[reply] n

[ask] Assess whether reported growth inhibition for COc1ccccc1C(c1cc2c(cc1O)OCO2)N1CCOCC1 (stereo unspecified) sits at 60% or higher.
[reply] y

====

- protocol.description: NCI Yeast Anticancer Drug Screen. Data for the mlh1 rad18 strain (AID 175)
- test.context: S. cerevisiae mlh1 rad18 strain growth inhibition; at 50.0 µM (retest, dose inferred, filed as 5.0)
About 79,000 compounds went through this panel and 15% of them were active in at least one assay; those are over-represented in the sample as a whole. Calls of active or inactive are those of the source. Rule as the data show it: active = growth inhibition above about 70%; inactive = the rest.
Permitted responses: active, inactive

Some solved cases for reference:
[
  {
    "compound": "CCOC(=O)C(=N\\Nc1cccc(C)c1C)/C(C)=N\\NC(N)=S",
    "class": "active"
  },
  {
    "compound": "CCOc1ccccc1N=Nc1ccc2oc(=O)c(C(=O)Nc3cccc(C)c3)cc2c1",
    "class": "inactive"
  }
]

[ask] Status in this test for CC1C(CCC(=O)O)OC2CC3C4CCC5CC(O)CCC5(C)C4CCC3(C)C21 (stereo unspecified) ?
[reply] active

[ask] Answer briefly: the call reported for Nc1ccc2ccccc2c1N=Nc1ccccc1 in this assay.
[reply] active

====

- protocol.description: NCI Yeast Anticancer Drug Screen. Data for the mlh1 rad18 strain (AID 175)
- test.context: S. cerevisiae mlh1 rad18 strain growth inhibition; at 5.0 µM (retest, dose inferred, filed as 0.5); stronger effect = higher value
Compounds without any hit were thinned out: in the full panel of roughly 79,000, 15% have a hit.
Listed below: growth inhibition values for each entry.
Return type: number; implicit unit %.

# count of solved cases: 8
[
  {
    "molecule": "OC(Cc1cccnc1)(c1ccccc1)c1ccc(Cl)cc1 (stereo not given)",
    "growth inhibition (%)": -5
  },
  {
    "molecule": "S=C(N/N=C1/CCCC/C1=N/NC(=S)N1CCOCC1)N1CCOCC1",
    "growth inhibition (%)": 41
  },
  {
    "molecule": "CCCC/C=C(\\CCCNCCCC)[Si](C)(C)C",
    "growth inhibition (%)": 81
  },
  {
    "molecule": "O=C(Nc1ccc(Cl)c(Cl)c1Cl)Oc1c(Cl)c(Cl)c(Cl)c(Cl)c1Cl",
    "growth inhibition (%)": 20
  },
  {
    "molecule": "CCCCCCCCCC1OCC(O)CO1 (stereo not given) (tested in a mixture with another compound)",
    "growth inhibition (%)": 12
  },
  {
    "molecule": "COc1ccc2c(c1)[n+]([O-])c(C(N)=O)c(N)[n+]2[O-]",
    "growth inhibition (%)": 42
  },
  {
    "molecule": "O=[N+]([O-])c1ccc(Cl)c(C(Nc2nncs2)Nc2nncs2)c1",
    "growth inhibition (%)": -13
  },
  {
    "molecule": "CC(=O)N1C/C(=C\\c2ccccc2)C(=O)/C(=C/c2ccccc2)C1",
    "growth inhibition (%)": 62
  }
]

[ask] Consider the molecule CCCCNc1ccc(C(=O)OC2CCN(C)CC2)c(Cl)c1 . State its measured growth inhibition.
[reply] 99

[ask] Answer with the recorded growth inhibition of Nc1ncc2ccccc2c1-c1ccc(NC(=O)CCCl)cc1 only.
[reply] -2

====

- protocol.description: NCI Yeast Anticancer Drug Screen. Data for the mlh1 rad18 strain (AID 175)
- test.context: S. cerevisiae mlh1 rad18 strain growth inhibition; at 50.0 µM
About 79,000 compounds went through this panel and 15% of them were active in at least one assay; those are over-represented in the sample as a whole. The source made the active and inactive calls. No stated cut-off is given here; in the data, active means growth inhibition above about 70%; inactive means the rest.
Can you answer with just one of these options? active, inactive

[
  {
    "compound": "CC(=O)C1(C(C)=O)C2=C(C(=O)C(Cl)=C(Cl)C2=O)N2C=CC=CC21 (stereo not given)",
    "class": "active"
  },
  {
    "compound": "Cc1c2cnccc2c(C)c2c1c1ccccc1n2CCCN",
    "class": "active"
  },
  {
    "compound": "O=C(O)CC(NC(=O)CP(=O)(O)O)C(=O)O.[NH-]C1CCCCC1[NH-].[Pt+2] (stereo not given)",
    "class": "inactive"
  }
]

[ask] Which outcome was entered for the compound COc1ccccc1/C=C1\NC(=S)N(/C=C2\C(=O)Oc3ccccc3C2=O)C1=O in this test?
[reply] active

[ask] Just curious, what result did c1ccc2nc3[nH]c4ccccc4c3cc2c1 get here?
[reply] inactive

====

- protocol.description: NCI Yeast Anticancer Drug Screen. Data for the mec2-1 strain (AID 157)
- test.context: S. cerevisiae mec2-1 strain, at 50.0 µM
This is part of a sample that, as a whole, favours compounds with a hit. Of some 79,000 tested, about 15% had one in any assay. Active and inactive are the calls of the source. Cut-off read from the data, not from the text of the source: active = growth inhibition above about 70%; inactive = the rest.
Pick from active, inactive when you respond.

[
  {
    "compound": "Cn1c2c(c3ccccc31)CCN(CCCN1CCN(c3cccc(Cl)c3)CC1)C2=O",
    "class": "inactive"
  },
  {
    "compound": "Cc1nc(C(N)=S)sc1/C(CC(=O)C(=O)Nc1cccc2ccc(O)cc12)=N\\NC(=O)c1ccncc1",
    "class": "inactive"
  },
  {
    "compound": "COc1ccc(C2COc3cc(O)c(O)cc3C2)cc1OC (configuration not stated)",
    "class": "active"
  },
  {
    "compound": "O=C1OC2(CCCCC2)OC(=O)C1=Cc1ccc([N+](=O)[O-])s1",
    "class": "inactive"
  },
  {
    "compound": "ON=C(CC(O)(C(F)(F)Cl)C(F)(F)Cl)CC(O)(C(F)(F)Cl)C(F)(F)Cl",
    "class": "active"
  }
]

[ask] For CCCCCCCCCCCCCCCCP(=O)([O-])OCC[N+](C)(C)C , which call appears in the assay record?
[reply] active

[ask] Please indicate how the test categorized CC(=O)OCCSCCOC(C)=O .
[reply] inactive

[ask] Call for entry O=c1nc(-c2ccccc2)cc(-c2ccccc2O)[nH]1 :
[reply] inactive

[ask] Per the assay record, what outcome was assigned to CN(C)c1ccc(N=Nc2ccc3c4c(cccc24)-c2ccccc2-3)cc1 ?
[reply] active

[ask] Identify the outcome logged in this assay for the compound shown: O=C(Nc1ccc([N+](=O)[O-])cc1[N+](=O)[O-])C(=O)C(C(=O)c1ccc(Cl)c(Cl)c1)C1OC(=O)c2ccccc21 (configuration not stated)
[reply] inactive

[ask] GET /call?item= CC(=O)OCc1cc2c(s1)C(=O)c1sccc1C2=O returns the recorded outcome of this test.
[reply] active

[ask] GET /call?item= CCCCCCCCCCCCCCCCCC(=O)OCCOCCO returns the recorded outcome of this test.
[reply] inactive

[ask] Record lookup: outcome of this test for CCCCCN(CCCCC)CCNc1ccc(C)c2sc3ccccc3c(=O)c12 ?
[reply] active
